Values were extracted from paper PMC6858497.

- measured target: GluN1–1a/2D (Rattus norvegicus, UniProt P35439+Q62645)
- Sequence (Q62645 28-1323, other chains not shown): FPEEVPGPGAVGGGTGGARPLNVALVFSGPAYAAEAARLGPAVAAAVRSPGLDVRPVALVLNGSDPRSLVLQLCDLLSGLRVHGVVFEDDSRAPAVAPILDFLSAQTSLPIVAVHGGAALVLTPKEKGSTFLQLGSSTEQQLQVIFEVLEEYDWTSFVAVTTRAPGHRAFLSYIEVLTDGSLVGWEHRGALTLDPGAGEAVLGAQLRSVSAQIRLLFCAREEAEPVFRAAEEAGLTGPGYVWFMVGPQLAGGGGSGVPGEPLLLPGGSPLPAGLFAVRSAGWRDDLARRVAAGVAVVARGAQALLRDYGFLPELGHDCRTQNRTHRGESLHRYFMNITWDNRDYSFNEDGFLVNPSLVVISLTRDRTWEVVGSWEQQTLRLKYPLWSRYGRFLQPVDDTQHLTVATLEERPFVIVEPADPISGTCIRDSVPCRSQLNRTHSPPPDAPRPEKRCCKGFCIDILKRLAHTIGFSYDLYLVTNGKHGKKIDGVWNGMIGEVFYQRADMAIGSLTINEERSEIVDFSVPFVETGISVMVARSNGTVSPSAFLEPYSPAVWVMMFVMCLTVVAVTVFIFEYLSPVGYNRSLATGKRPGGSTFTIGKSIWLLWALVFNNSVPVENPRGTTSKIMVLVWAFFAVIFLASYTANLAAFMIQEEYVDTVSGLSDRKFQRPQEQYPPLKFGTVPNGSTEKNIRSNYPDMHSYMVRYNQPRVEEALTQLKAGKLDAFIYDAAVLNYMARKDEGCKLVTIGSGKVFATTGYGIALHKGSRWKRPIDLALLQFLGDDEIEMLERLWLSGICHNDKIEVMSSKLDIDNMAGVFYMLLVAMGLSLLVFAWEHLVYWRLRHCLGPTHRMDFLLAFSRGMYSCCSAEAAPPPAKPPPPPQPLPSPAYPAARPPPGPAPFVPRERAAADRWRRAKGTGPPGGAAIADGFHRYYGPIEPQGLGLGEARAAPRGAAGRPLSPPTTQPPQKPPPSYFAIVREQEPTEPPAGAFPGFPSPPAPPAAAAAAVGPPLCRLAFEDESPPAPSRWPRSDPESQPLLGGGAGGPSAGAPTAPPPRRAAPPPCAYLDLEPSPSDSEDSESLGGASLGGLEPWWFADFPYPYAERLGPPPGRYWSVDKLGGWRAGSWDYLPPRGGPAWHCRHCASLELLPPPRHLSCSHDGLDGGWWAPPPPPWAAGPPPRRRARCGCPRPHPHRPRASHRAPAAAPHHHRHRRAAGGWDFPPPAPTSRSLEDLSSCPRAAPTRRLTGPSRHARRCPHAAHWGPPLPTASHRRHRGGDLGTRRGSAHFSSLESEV
- experiment notes: Two-electrode voltage-clamp recordings, Xenopus oocytes
- Type: cell-based
- recorded conditions: IC50, channel block; −60 mV; control (absence of Mg2+)
observed property: IC50 (nM)

* CNC1(c2ccccc2Cl)CCCCC1=O (stereo not shown) | 1300

---

- measured target: GluN1–1a/2BC1/2DC2 (Rattus norvegicus, UniProt P35439+Q00959+Q00960+Q62645, A876H/F846L/G856D/H848F/K857R/M851T/M860L/Q845K/R869K/V861L/V866F)
- experiment notes: Two-electrode voltage-clamp recordings, Xenopus oocytes
- Format: cell-based
- recorded conditions: isoform 1a; 300 μM glutamate plus 100 μM glycine
pIC50: −log10 of the molar value.
observed property: pIC50

• COc1ccc2nc(/C=C/c3cccc([N+](=O)[O-])c3)n(-c3ccc(C(=O)O)cc3)c(=O)c2c1 = 5.00
• Cc1nccn1Cc1cc(-c2ccc(F)c(C(F)F)c2)cnn1.Cl.Cl = 7.92
• Cc1ccc2[nH]c(=O)c(C3=NN(C(=O)CCC(=O)O)C(c4ccc(Br)cc4)C3)c(-c3ccccc3)c2c1 (stereo not drawn) = 4.89
